Test system: Jurkat
assay_method_text: Cytotoxicity against human Jurkat cells assessed as cell viability after 72 hrs by MTS assay
Assay type: functional, cell-based
Please go through the items and note down their pIC50.
One number for each entry, as −log10 of the molar value.

Solved entries (count: 2):
Cc1ccc(C(=O)c2cc(O)c3ccccc3c2O)cc1 ... 5.47
CCC(=O)c1cc(O)c2ccccc2c1O ... 5.34

Please give pIC50, item by item, for the list that follows.
1. C/C=C/C(=O)c1cc(O)c2ccccc2c1O
2. CCCCCCCCCCCC(=O)c1cc(O)c2ccccc2c1O

Output:
5.20
5.18

----------
Give pIC50 for every item shown.
System: CCRF-CEM
assay_method_text: Cytotoxicity against human CCRF-CEM cells assessed as cell viability after 72 hrs by MTS assay
Format: functional, cell-based
Answers are plain numbers, as −log10 of the molar value.

# annotated cases, reported pIC50 shown
O=C(c1ccccc1)c1cc(O)c2ccccc2c1O ... 5.26
CC(=O)c1cc(O)c2ccccc2c1O ... 5.28
C/C=C/C(=O)c1cc(O)c2ccccc2c1O ... 5.50
Cc1ccc(C(=O)c2cc(O)c3ccccc3c2O)cc1 ... 6.13
CCC(=O)c1cc(O)c2ccccc2c1O ... 5.40

Please state, for each entry, its recorded pIC50.
1. COc1ccc(C(=O)c2cc(O)c3ccccc3c2O)cc1
2. CCCCCCCCCCCC(=O)c1cc(O)c2ccccc2c1O

Output:
1. 8.00
2. 5.22
